System: Fusobacterium nucleatum subsp. animalis
experimental-protocol: growth AUC relative to DMSO control (median of replicates) (fraction); higher = more growth (less inhibition), active = hit call of the paper
assay-context: 20 µM; 24 h
readout-label: growth AUC

- CCOP(=S)(OCC)OP(=S)(OCC)OCC: 1.04
- CCOc1ccccc1OS(=O)(=O)NC(=O)Nc1nc(OC)cc(OC)n1: 1
- c1cc2c3c(cccc3c1)CC2: 1.07
- COC(=O)C(C)N(C(=O)Cc1ccccc1)c1c(C)cccc1C (configuration not stated): 0.917
- COP(=S)(OC)Oc1ccc(S(N)(=O)=O)cc1: 0.998
- COCC(=O)N(c1c(C)cccc1C)[C@H](C)C(=O)OC: 1.02
- CNC(=O)O/N=C/C(C)(C)SC: 0.939
- CC(Oc1cc(Cl)c(Cl)cc1Cl)C(=O)O (configuration not stated): 0.889
- CCC(C)(NC(=O)c1cc(Cl)c(C)c(Cl)c1)C(=O)CCl (configuration not stated): 0.906
- ClCC(Br)CBr (configuration not stated): 0.995
- CCOP(=S)(Oc1ccc([N+](=O)[O-])cc1)c1ccccc1 (configuration not stated): 1.09
- CNC(=O)ON=C(CS(C)=O)C(C)(C)C (configuration not stated): 1.01

----------
Readings of growth AUC for the listed molecules
Test system: Lactobacillus gasseri
experimental-protocol: growth AUC relative to DMSO control (median of replicates) (fraction); higher = more growth (less inhibition), active = hit call of the paper
assay-context: 20 µM; 24 h
readout-label: growth AUC

- CCOc1ccc(C(C)(C)COCc2cccc(Oc3ccccc3)c2)cc1: 0.918
- CCOP(=O)(OCC)ON1C(=O)c2cccc3cccc(c23)C1=O: 0.954
- CCOC(=O)c1cn2nc(OP(=S)(OCC)OCC)cc2nc1C: 0.908
- Cc1c(N)cccc1N: 1.01
- CCCSP(=S)(OCC)Oc1ccc(SC)cc1 (stereo unspecified): 0.946
- C=CCC1=C(C)C(OC(=O)C2C(C=C(C)C)C2(C)C)CC1=O (stereo unspecified): 0.868

----------
System: Eubacterium rectale
experimental-protocol: growth AUC relative to DMSO control (median of replicates) (fraction); higher = more growth (less inhibition), active = hit call of the paper
assay-context: 20 µM; 24 h
Decide by growth AUC: equal to or exceeding 1 means yes (1), less means no (0).

- CCOC1Oc2ccc(OS(C)(=O)=O)cc2C1(C)C (stereo not drawn): yes (1)
- c1nc[n]([Sn]([CH]2CCCCC2)([CH]2CCCCC2)[CH]2CCCCC2)n1: no (0)
- O=C(O)C(F)(F)C(F)(F)C(F)(F)C(F)(F)C(F)(F)C(F)(F)C(F)(F)C(F)(F)C(F)(F)F: no (0)
- CCOP(=S)(OCC)SCSc1ccc(Cl)cc1: no (0)
- CC(C)c1ccc(NC(=O)N(C)C)cc1: yes (1)
- CCc1ccc(C(=O)NN(C(=O)c2cc(C)cc(C)c2)C(C)(C)C)cc1: no (0)
- O=C(O)c1nc(Cl)ccc1Cl: no (0)
- COc1cc(OC)nc(Sc2cccc(Cl)c2C(=O)O)n1: yes (1)
- CCOP(=S)(OCC)Oc1cnccn1: no (0)
- O=C1C=C(N(Cc2ccc(Cl)nc2)CC(F)F)CO1: no (0)
- CO/N=C(/C1=NOCCO1)c1ccccc1Oc1ncnc(Oc2ccccc2Cl)c1F: no (0)
- CCCCCCCCSC(=O)Oc1cc(Cl)nnc1-c1ccccc1: no (0)
- O=P(OCCCl)(OCCCl)OCCCl: no (0)
- CCOP(=S)(OCC)SCSCC: yes (1)
- COC(=O)c1ccccc1S(=O)(=O)NC(=O)Nc1nc(C)nc(OC)n1: yes (1)
- CCC(C)(C)c1ccc(O)cc1: no (0)
- COC(=O)c1ccccc1S(=O)(=O)NC(=O)N(C)c1nc(C)nc(OC)n1: no (0)
